Parameter: MBC. Scope: all listed entries.
Tested on: NRS194
PROTOCOL TEXT: MIC/MBC broth microdilution, NRS194
Type: cell-based
SETTINGS: Staphylococcus aureus, Table 8, read-out: MBC
ENDPOINT LABEL: MBC (µM)

[[record]]
compound = "C/C(=N/NC(=N)N)c1sc(-c2ccc(-c3cccc4ccccc34)cc2)nc1C [Compound M14]"
target_entity = "NRS194"
endpoint_label = "MBC"
unit_tag = "µM"
meas_value = 4

[[record]]
compound = "CCCCC#Cc1ccc(-c2nc(C)c(/C(C)=N/NC(=N)N)s2)cc1 [Compound R1]"
target_entity = "NRS194"
endpoint_label = "MBC"
unit_tag = "µM"
meas_value = 4

[[record]]
compound = "C/C(=N\\NC(=N)N)c1sc(-c2ccc(N)cc2)nc1C [Compound M2]"
target_entity = "NRS194"
endpoint_label = "MBC"
unit_tag = "µM"
meas_value = 128

[[record]]
compound = "CC(=O)c1ccc(-c2ccc(-c3nc(C)c(/C(C)=N\\NC(=N)N)s3)cc2)cc1 [Compound M11]"
target_entity = "NRS194"
endpoint_label = "MBC"
unit_tag = "µM"
meas_value = 16

[[record]]
compound = "CCCCc1ccc(-c2nc(C)c(/C(C)=N/NC(=N)N)s2)cc1 [Compound 1a]"
target_entity = "NRS194"
endpoint_label = "MBC"
unit_tag = "µM"
meas_value = 4

[[record]]
compound = "C/C(=N/NC(=N)N)c1sc(-c2ccc(-c3ccc(F)cc3)cc2)nc1C [Compound M12]"
target_entity = "NRS194"
endpoint_label = "MBC"
unit_tag = "µM"
meas_value = 32

[[record]]
compound = "C/C(=N/NC(=N)N)c1sc(-c2ccc(-c3ccc(C(F)(F)F)cc3)cc2)nc1C [Compound M13]"
target_entity = "NRS194"
endpoint_label = "MBC"
unit_tag = "µM"
meas_value = 32


---

Tested on: MRSA USA500 (NRS385)
PROTOCOL TEXT: MIC/MBC broth microdilution, NRS385 (USA500)
Format: cell-based
SETTINGS: Staphylococcus aureus; Table 8; NRS385; read-out: MIC
ENDPOINT LABEL: MIC

[[record]]
molecule = "CCCCc1ccc(-c2nc(C)c(/C(N)=N\\O)s2)cc1 [Compound R7]"
endpoint_label = "MIC"
meas_value = "> 128 µM"

[[record]]
molecule = "CC(=O)c1sc(-c2ccc(-c3cccc4ccccc34)cc2)nc1C [Compound M6]"
endpoint_label = "MIC"
meas_value = "> 128 µM"

[[record]]
molecule = "C/C(=N/NC(=N)N)c1sc(-c2ccc(-c3cccc4ccccc34)cc2)nc1C [Compound M14]"
endpoint_label = "MIC"
meas_value = "4 µM"

[[record]]
molecule = "CC(=O)c1ccc(-c2ccc(-c3nc(C)c(C(C)=O)s3)cc2)cc1 [Compound M9]"
endpoint_label = "MIC"
meas_value = "> 128 µM"

[[record]]
molecule = "CC(=O)c1sc(-c2ccc(-c3ccc(F)cc3)cc2)nc1C [Compound M8]"
endpoint_label = "MIC"
meas_value = "> 128 µM"

[[record]]
molecule = "CCCCC#Cc1ccc(-c2nc(C)c(/C(C)=N/NC(=N)N)s2)cc1 [Compound R1]"
endpoint_label = "MIC"
meas_value = "4 µM"

[[record]]
molecule = "C/C(=N\\NC(=N)N)c1sc(-c2ccc(N)cc2)nc1C [Compound M2]"
endpoint_label = "MIC"
meas_value = "128 µM"

[[record]]
molecule = "CC(=O)c1sc(-c2ccc(-c3ccc(C(F)(F)F)cc3)cc2)nc1C [Compound M10]"
endpoint_label = "MIC"
meas_value = "> 128 µM"

